# Tested on: Mycobacterium tuberculosis
# experimentNotes: Antituberculosis activity against Mycobacterium tuberculosis H37Rv MTCC 300 at 6.25 ug/ml after 4 weeks by Lowenstein-Jensen medium method
# Format: functional
# measurementContext: H37Rv MTCC 300, 672 h
# inhibition at 6.25 µg/mL >= 80% gives Condition met, anything below gives Condition not met

Has CC1=C(C(=O)Nc2ccc(Br)cn2)C(c2cn(-c3ccccc3)nc2-c2ccc(F)cc2)n2ncnc2N1 (configuration not stated) a recorded inhibition at 6.25 µg/mL greater than or equal to 80%?
Condition met

inhibition at 6.25 µg/mL >= 80% for CC1=C(C(=O)Nc2ccccn2)C(c2cn(-c3ccccc3)nc2-c2ccc([N+](=O)[O-])cc2)n2ncnc2N1 (configuration not stated) ?
Condition met

Decide: is the reported value of inhibition at 6.25 µg/mL for CC1=C(C(=O)Nc2ccc(C)cn2)C(c2cn(-c3ccccc3)nc2-c2ccc([N+](=O)[O-])cc2)n2ncnc2N1 (configuration not stated) equal to or greater than 80%?
Condition not met

Would you say Cc1ccc(-c2nn(-c3ccccc3)cc2C2C(C(=O)Nc3ccccn3)=C(C(C)C)Nc3ncnn32)cc1 (configuration not stated) shows inhibition at 6.25 µg/mL at minimum 80%?
Condition not met

Record CC[C@@H](CO)NCCN[C@@H](CC)CO ; criterion: inhibition at 6.25 µg/mL no lower than 80%. Met?
Condition met

I'd appreciate it if you could say whether CC1=C(C(=O)Nc2ccccn2)C(c2cn(-c3ccccc3)nc2-c2ccc(Cl)cc2)n2ncnc2N1 (configuration not stated) has inhibition at 6.25 µg/mL at least equal to 80%.
Condition met

These data points were gathered from ChEMBL document CHEMBL3734741.
